In this section we review reported IC50 values for a set of compounds.
# Assayed target: NS5B polymerase (Hepatitis C virus genotype 1b, UniProt P26663)
# Sequence (P26663 2420-3010): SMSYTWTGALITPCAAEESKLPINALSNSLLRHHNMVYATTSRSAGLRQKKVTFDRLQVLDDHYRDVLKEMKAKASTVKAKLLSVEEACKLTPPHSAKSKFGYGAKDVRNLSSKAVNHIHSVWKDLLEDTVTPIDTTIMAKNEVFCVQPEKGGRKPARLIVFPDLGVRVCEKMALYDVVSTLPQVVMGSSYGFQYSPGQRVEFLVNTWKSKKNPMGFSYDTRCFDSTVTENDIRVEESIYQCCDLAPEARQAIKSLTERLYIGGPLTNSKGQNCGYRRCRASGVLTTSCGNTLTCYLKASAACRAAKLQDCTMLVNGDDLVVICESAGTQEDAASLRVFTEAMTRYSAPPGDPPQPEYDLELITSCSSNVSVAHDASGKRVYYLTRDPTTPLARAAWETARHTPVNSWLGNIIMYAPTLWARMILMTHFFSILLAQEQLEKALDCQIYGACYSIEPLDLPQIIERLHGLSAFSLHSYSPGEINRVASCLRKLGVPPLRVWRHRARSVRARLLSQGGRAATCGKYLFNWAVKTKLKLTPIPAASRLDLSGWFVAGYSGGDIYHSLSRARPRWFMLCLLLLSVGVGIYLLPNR
# Method summary: HCV NS5B polymerase inhibition assay (streptavidin-coated FlashPlate, [α-33P]GTP incorporation)
# Assay type: biochemical
# Condition summary: 20 nM enzyme, 75 min at 28° C.; read-out: NS5B Polymerase IC50

# example entries with known answers
| Compound | IC50 |
| --- | --- |
| CS(=O)(=O)Nc1ccc2c(c1)S(=O)(=O)N=C(c1c(O)c3cccn3n(Cc3ccc(F)cc3)c1=O)N2 [Example 9] | < 100 nM |
| CN(c1ccc2c(c1)S(=O)(=O)N=C(c1c(O)c3cccn3n(Cc3ccc(F)cc3)c1=O)N2)S(C)(=O)=O [Example 10] | 100 to 3000 nM |
| CC(C)CCn1c(=O)c(C2=NS(=O)(=O)c3ccccc3N2)c(O)c2cccn21 [Example 1] | 100 to 3000 nM |

Short answer for O=c1c(C2=NS(=O)(=O)c3ccccc3N2)c(O)c2cccn2n1Cc1ccc(F)cc1 [Example 12] : IC50 was 100 to 3000 nM

Short answer for CC(C)CCn1c(=O)c(C2=NS(=O)(=O)c3cc(NS(C)(=O)=O)ccc3N2)c(O)c2cc(C#N)cn21 [Example 15] : IC50 was 100 to 3000 nM

Short answer for CC(C)CCn1c(=O)c(C2=NS(=O)(=O)c3cc(NS(=O)(=O)C4CC4)ccc3N2)c(O)c2cccn21 [Example 13] : IC50 was 100 to 3000 nM

Short answer for O=c1c(C2=NS(=O)(=O)c3cc(C4CCCS4(=O)=O)ccc3N2)c(O)c2cccn2n1Cc1ccc(F)cc1 (stereo not drawn) [Example 11] : IC50 was 100 to 3000 nM

Short answer for CC(C)(C)CCn1c(=O)c(C2=CS(=O)(=O)c3cc(NS(C)(=O)=O)ccc3N2)c(O)c2cccn21 [Example 8] : IC50 was < 100 nM

Entry source: patent US7842838B2
